# credit: patent US20080058263A1

# Assay System: T1, VEGFR-1-Fc (UniProt P17948 27-338)
# T1 construct: domain: first three Ig domains; expressed in Drosophila S2 cells, purified on Protein A sepharose; also called VEGFR-1-Fc fusion protein; not shown: Fc fragment from the Signal-pIgPlus vector
# T1 sequence (P17948 27-338): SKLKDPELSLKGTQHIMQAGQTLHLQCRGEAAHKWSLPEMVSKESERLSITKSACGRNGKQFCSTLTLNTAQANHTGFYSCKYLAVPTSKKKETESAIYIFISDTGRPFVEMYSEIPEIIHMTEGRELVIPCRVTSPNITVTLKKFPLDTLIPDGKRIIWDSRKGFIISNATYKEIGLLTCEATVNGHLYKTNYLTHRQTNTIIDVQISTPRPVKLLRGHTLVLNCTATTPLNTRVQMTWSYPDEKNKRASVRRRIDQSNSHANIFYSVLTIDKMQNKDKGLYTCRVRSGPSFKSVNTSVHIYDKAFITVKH
# Experiment Summary: receptor-Fc IP
Measurement Type: binding result

> print(dat)
                                     binder  measurement.type         val
1  13-11 (ligand) GQNHHEVVKFMDVYQRSYCHPIETLVDIFQEYPDEIEYIFKPPCVSVYRCGGCCNSEGLQCVPTEESNITMQIMRITVPLSQGPKPVTISFLQHNKCECRPKKD    binding result       binds
2  72-4 (ligand) GQNHHEVVKSIDNEWRKTQCMPREVCIDVGKEFGVATNTFFKPPCVSVYRCGGCCNSEGLQCMNTSTSYLSKTLFEIKPHQGQHIGEMSFLQHNKCECRPKKD    binding result  no binding
3  21-7 (ligand) AHYNTEILKSIDNEWRKTQCMPREVCIDVGKEYPDEIEYIFKPSCVPLMRCGGCCNSEGLQCVPTEESNITMQIMRIKPHQGQHIGEMSFANHTSCRCMSKLD    binding result  no binding
4  53-15 (ligand) AHYNTEILKSIDNEWRKTQCMPIETLVDIFQEYPDEIEYIFKPPCVSVYRCGGCCNSEGLQCVPTEESNITMQIMRITVPLSQGPKPVTISFANHTSCRCMSKLD    binding result  no binding
